Tested on: Fibroblast
Experiment: Multiplex assay against human fibroblast
Format: toxicity, cell-based
Details: 24 h, 10 µM, compound concentration 10 uM, replicate 2

# compound, Population Apoptotic (%)
rows = [
    ("COc1ccc2c(c1OCc1ccccc1)C[C@@H](C(=O)O)N(C(=O)C(c1ccccc1)c1ccccc1)C2", 58),
    ("N[C@](CC1c2ccccc2Oc2ccccc21)(C(=O)O)[C@H]1C[C@@H]1C(=O)O", 35),
    ("CN1CCC(C(=O)c2cccc(NC(=O)c3c(F)cc(F)cc3F)n2)CC1", 37),
    ("Cl.Cl.OCCOCCN1CCN(C(c2ccccc2)c2ccc(Cl)cc2)CC1 (centres undefined) [HYDROXYZINE HYDROCHLORIDE]", 36),
]

====

Test system: U2OS
Assay: Multiplex assay against U2OS
Type: toxicity, cell-based
Conditions: human, 48 h, 10 µM, compound concentration 10 uM, replicate 1
Listing of entries alongside the reported Population Pyknosed Nuclei (%).

# molecule, Population Pyknosed Nuclei (%)
rows = [
    ("Cl.Cl.OCCOCCN1CCN(C(c2ccccc2)c2ccc(Cl)cc2)CC1 (centres undefined) [HYDROXYZINE HYDROCHLORIDE]", 13),
    ("CCn1c(-c2nc3cc(C(=O)N4CCCC(N)C4)ccc3n2C)cc2ccccc21.Cl (centres undefined)", 19),
    ("CN1CCC(C(=O)c2cccc(NC(=O)c3c(F)cc(F)cc3F)n2)CC1", 12),
    ("COc1ccc2[nH]c(I)c(CCNC(C)=O)c2c1", 9),
    ("C[C@H](NC(=O)CNC(=O)c1cccc(Cl)c1)c1ccccc1", 7),
    ("Cc1nn(C)c2nc(NNC(=O)Nc3cc(Cl)nc(Cl)c3)cc(C(C)C)c12", 32),
    ("CC(C)C[C@H](CO)Nc1nc(S[C@@H](C)c2ccccc2)nc2nc(N)sc12", 19),
    ("COc1cc(OC2CCN(C(C)=O)CC2)ccc1C(=O)N1CCC(N2C(=O)OCc3ccccc32)CC1", 14),
    ("O=C(NCCNCC(O)COc1ccc(O)cc1)N1CCOCC1.O=C(NCCNCC(O)COc1ccc(O)cc1)N1CCOCC1.O=C(O)/C=C/C(=O)O (centres undefined) [XAMOTEROL FUMARATE]", 12),
]

====

System: HEK-293T
Assay: Multiplex assay against HEK293T
Format: toxicity, cell-based
Settings: human, 48 h, 10 µM, compound concentration 10 uM, replicate 2
Listing of entries alongside the reported Total Cell Count.

# compound, Total Cell Count
data = [
    ("Cc1sc2c(c1C)C(c1ccc(Cl)cc1)=N[C@H](CC(=O)OC(C)(C)C)c1nnc(C)n1-2", 525),
    ("C=CCN1C[C@H](C(=O)N(CCCN(C)C)C(=O)NCC)C[C@@H]2c3cccc4[nH]cc(c34)C[C@H]21", 676),
    ("CN1CCN2c3ccccc3Cc3ccccc3C2C1.Cl (centres undefined) [MIANSERIN HYDROCHLORIDE]", 860),
    ("Nc1nc(-c2ccco2)c2cnn(Cc3ccccc3F)c2n1", 398),
    ("CN(C)C/C=C/C(=O)Nc1ccc(C(=O)N2CCCC(Nc3ncc(Cl)c(-c4c[nH]c5ccccc45)n3)C2)cc1 (centres undefined)", 277),
    ("OCCCNc1cc(-c2ccnc(Nc3cccc(Cl)c3)n2)ccn1", 238),
    ("COCCn1c(C)c(C)s/c1=N\\C(=O)C1C(C)(C)C1(C)C", 493),
    ("CC(C)(O)C(=O)N1CCN(c2ccc(C(F)(F)F)c(C3=C(c4c[nH]c5ccccc45)C(=O)NC3=O)c2)CC1", 227),
    ("Cc1nn(C)c2nc(NNC(=O)Nc3cc(Cl)nc(Cl)c3)cc(C(C)C)c12", 593),
    ("C[C@H](NC(=O)CNC(=O)c1cccc(Cl)c1)c1ccccc1", 462),
    ("Cc1cc(NC(=O)NCCN2CCC(O)(Cc3ccccc3)CC2)c2ccccc2n1", 570),
    ("CCn1c(-c2nc3cc(C(=O)N4CCCC(N)C4)ccc3n2C)cc2ccccc21.Cl (centres undefined)", 613),
    ("COc1cc(OC2CCN(C(C)=O)CC2)ccc1C(=O)N1CCC(N2C(=O)OCc3ccccc32)CC1", 625),
    ("COc1ccc2c(c1OCc1ccccc1)C[C@@H](C(=O)O)N(C(=O)C(c1ccccc1)c1ccccc1)C2", 534),
    ("Cc1c(Cc2ccc3ccccc3n2)c2cc(F)ccc2n1CC(=O)O", 630),
    ("CC(C)(C)c1ccc(CSc2cnn(C(C)(C)C)c(=O)c2Cl)cc1", 290),
    ("O=c1nc2[nH]c3ccccc3nc-2c(=O)[nH]1", 531),
    ("CCCCCCNC(=O)Nc1ccc(S(=O)(=O)Nc2ccc(CCNC[C@H](O)COc3ccc(O)cc3)cc2)cc1", 596),
    ("O=C(O)CCC/C=C\\CC1C(O)CC(O)C1/C=C/C(O)COc1cccc(Cl)c1 (centres undefined)", 731),
]

====

System: U2OS
Experiment: Multiplex assay against U2OS
Format: toxicity, cell-based
Settings: human, 24 h, 1 µM, compound concentration 1 uM, replicate 1
Listing of entries alongside the reported Population Mitochondria Different-Phenotype (%).
assay-metric: Population Mitochondria Different-Phenotype (%)

# smiles-text, units, value-reported
data = [
    ("Nc1nc(CC(=O)Nc2ccc(CCNC[C@H](O)c3ccccc3)cc2)cs1", "%", 2),
    ("COc1ccc2c(c1OCc1ccccc1)C[C@@H](C(=O)O)N(C(=O)C(c1ccccc1)c1ccccc1)C2", "%", 0),
    ("S=C(NCCCc1c[nH]cn1)NCCCN(Cc1ccc(Cl)c(Cl)c1)c1ccc(Br)cn1", "%", 3),
    ("COC(c1ccccc1)(c1ccccc1)[C@H](Oc1nc(C)cc(C)n1)C(=O)O", "%", 1),
]

====

Test system: U2OS
Assay: Multiplex assay against U2OS
Format: toxicity, cell-based
Settings: human, 12 h, 10 µM, compound concentration 10 uM, replicate 1
assay-metric: Population Mitotic Cells (%)

# molecule, value-reported
rows = [
    ("COc1ccc2[nH]c(I)c(CCNC(C)=O)c2c1", 22),
    ("CCC(=O)OCC(=O)[C@@]1(OC(=O)CC)[C@@H](C)C[C@H]2[C@@H]3CCC4=CC(=O)C=C[C@]4(C)[C@@]3(Cl)[C@@H](O)C[C@@]21C [BECLOMETHASONE DIPROPIONATE]", 34),
    ("COc1cc(C(=O)N2CC[C@@H](O)[C@@H](N)C2)cc2nc(-c3cc4ccccc4n3CC3CC3)n(C)c12.Cl", 31),
    ("CN1CCC(C(=O)c2cccc(NC(=O)c3c(F)cc(F)cc3F)n2)CC1", 34),
    ("Cl.Cl.OCCOCCN1CCN(C(c2ccccc2)c2ccc(Cl)cc2)CC1 (stereo not drawn) [HYDROXYZINE HYDROCHLORIDE]", 41),
    ("COc1cc2nc(N3CCN(C(=O)COc4c(OC)cccc4C(C)C)CC3)nc(N)c2cc1OC.Cl.Cl", 44),
    ("COC(c1ccccc1)(c1ccccc1)[C@H](Oc1nc(C)cc(C)n1)C(=O)O", 38),
    ("CCc1nn2c(C)cc(C)nc2c1Cc1ccc(-c2nnc(C3CCNCC3)o2)cc1", 31),
]

====

Tested on: HEK-293T
Assay: Multiplex assay against HEK293T
Type: toxicity, cell-based
Conditions: human, 48 h, 10 µM, compound concentration 10 uM, replicate 1
Non-standard residues stand in square brackets, D forms with d. Residues, ends and D or L forms follow the SMILES beside them.
assay-metric: Population Mitochondria Different-Phenotype (%)

# compound, value-reported
rows = [
    ("CC(F)(F)CN1CCOc2c(nn(-c3ccccc3Cl)c2-c2ccc(Cl)cc2)C1=O", 62),
    ("COc1cc2nc(N3CCN(C(=O)COc4c(OC)cccc4C(C)C)CC3)nc(N)c2cc1OC.Cl.Cl", 48),
    ("O=c1nc2[nH]c3ccccc3nc-2c(=O)[nH]1", 17),
    ("CN1C[C@H](C(=O)N[C@]2(C)O[C@@]3(O)[C@@H]4CCCN4C(=O)[C@H](Cc4ccccc4)N3C2=O)C[C@@H]2c3cccc4[nH]cc(c34)C[C@H]21.CS(=O)(=O)O [DIHYDROERGOTAMINE MESYLATE]", 20),
    ("Cc1cc(NC(=O)NCCN2CCC(O)(Cc3ccccc3)CC2)c2ccccc2n1", 34),
    ("O=C(Nc1cc(-c2ccccc2)nn1-c1ccccc1F)c1ccc([N+](=O)[O-])cc1", 19),
    ("Nc1nc(-c2ccco2)c2cnn(Cc3ccccc3F)c2n1", 42),
    ("O=c1ccc2ccc(OCCCCN3CCN(c4cccc5sccc45)CC3)cc2[nH]1", 96),
    ("S=C(NCCCc1c[nH]cn1)NCCCN(Cc1ccc(Cl)c(Cl)c1)c1ccc(Br)cn1", 86),
    ("COC(c1ccccc1)(c1ccccc1)[C@H](Oc1nc(C)cc(C)n1)C(=O)O", 18),
    ("O=C(NCCNCC(O)COc1ccc(O)cc1)N1CCOCC1.O=C(NCCNCC(O)COc1ccc(O)cc1)N1CCOCC1.O=C(O)/C=C/C(=O)O (stereo unspecified) [XAMOTEROL FUMARATE]", 13),
    ("Cc1cc(O)c(-c2ccc([C@@H](C)CN(C)C)cc2)c2c1[nH]c(=O)c1sccc12", 92),
    ("COc1ccc2[nH]c(I)c(CCNC(C)=O)c2c1", 16),
    ("Cl.Cl.OCCOCCN1CCN(C(c2ccccc2)c2ccc(Cl)cc2)CC1 (stereo unspecified) [HYDROXYZINE HYDROCHLORIDE]", 45),
    ("CC(C)C[C@@H]1NC(=O)[C@@H](C(C)C)NC(=O)[C@@H]2CCCN2C(=O)[C@@H](CC(=O)O)NC(=O)[C@@H](Cc2c[nH]c3ccccc23)NC1=O [BQ-123] (cyclo(L[dW][dD]P[dV]))", 21),
    ("Cc1nn(C)c2nc(NNC(=O)Nc3cc(Cl)nc(Cl)c3)cc(C(C)C)c12", 82),
]
